test system: Trypanosoma cruzi; assay: Antitrypanosomal activity against Trypanosoma cruzi Y strain
pIC50: −log10 of the molar value.
pIC50 values, listed per item
MEASURED_PROPERTY: pIC50

SAMPLE_SMILES: CC(=O)Nc1ccc(/C=N/NC(=O)c2nc(-c3ccc(Br)cc3)no2)cc1
MEASURED_TARGET: Trypanosoma cruzi
MEASURED_PROPERTY: pIC50
QUALIFIER_OPERATOR: <
QUANTITATIVE_RESULT: 3.82

SAMPLE_SMILES: Cc1ccc(-c2noc(C(=O)N/N=C/c3ccc(O)cc3)n2)cc1
MEASURED_TARGET: Trypanosoma cruzi
MEASURED_PROPERTY: pIC50
QUALIFIER_OPERATOR: =
QUANTITATIVE_RESULT: 4.32

SAMPLE_SMILES: O=C(N/N=C/c1ccc(O)cc1)c1nc(-c2ccc(Br)cc2)no1
MEASURED_TARGET: Trypanosoma cruzi
MEASURED_PROPERTY: pIC50
QUALIFIER_OPERATOR: =
QUANTITATIVE_RESULT: 4.71

SAMPLE_SMILES: CC(=O)Nc1ccc(/C=N/NC(=O)c2nc(-c3ccc([N+](=O)[O-])cc3)no2)cc1
MEASURED_TARGET: Trypanosoma cruzi
MEASURED_PROPERTY: pIC50
QUALIFIER_OPERATOR: <
QUANTITATIVE_RESULT: 3.82

SAMPLE_SMILES: O=C(N/N=C/c1ccc(O)cc1)c1nc(-c2ccc(Cl)cc2)no1
MEASURED_TARGET: Trypanosoma cruzi
MEASURED_PROPERTY: pIC50
QUALIFIER_OPERATOR: =
QUANTITATIVE_RESULT: 4.67

SAMPLE_SMILES: COc1ccc(-c2noc(C(=O)N/N=C/c3ccc(O)cc3)n2)cc1
MEASURED_TARGET: Trypanosoma cruzi
MEASURED_PROPERTY: pIC50
QUALIFIER_OPERATOR: =
QUANTITATIVE_RESULT: 4.86

SAMPLE_SMILES: CC(=O)Nc1ccc(/C=N/NC(=O)c2nc(-c3ccc(C)cc3)no2)cc1
MEASURED_TARGET: Trypanosoma cruzi
MEASURED_PROPERTY: pIC50
QUALIFIER_OPERATOR: =
QUANTITATIVE_RESULT: 5.01

SAMPLE_SMILES: O=C(N/N=C/c1ccc(O)cc1)c1nc(-c2ccc(F)cc2)no1
MEASURED_TARGET: Trypanosoma cruzi
MEASURED_PROPERTY: pIC50
QUALIFIER_OPERATOR: =
QUANTITATIVE_RESULT: 4.68

SAMPLE_SMILES: O=C(N/N=C/c1ccc(O)cc1)c1nc(-c2ccccc2)no1
MEASURED_TARGET: Trypanosoma cruzi
MEASURED_PROPERTY: pIC50
QUALIFIER_OPERATOR: =
QUANTITATIVE_RESULT: 4.11

SAMPLE_SMILES: CC(=O)Nc1ccc(/C=N/NC(=O)c2nc(-c3ccc(F)cc3)no2)cc1
MEASURED_TARGET: Trypanosoma cruzi
MEASURED_PROPERTY: pIC50
QUALIFIER_OPERATOR: <
QUANTITATIVE_RESULT: 3.82

SAMPLE_SMILES: CC(=O)Nc1ccc(/C=N/NC(=O)c2nc(-c3ccc(O)cc3)no2)cc1
MEASURED_TARGET: Trypanosoma cruzi
MEASURED_PROPERTY: pIC50
QUALIFIER_OPERATOR: <
QUANTITATIVE_RESULT: 3.82

---

assay: Cytotoxicity against BALB/c mouse splenocyte assessed as [3H]thymidine incorporation by beta-counting; type: cell-based; conditions: splenocytes, read-out: MNCC
MEASURED_PROPERTY: MNTC (µg/mL)

MOLECULE: O=C(N/N=C/c1ccc(O)cc1)c1nc(-c2ccc([N+](=O)[O-])cc2)no1
MEASURED_PROPERTY: MNTC
UNITS_TEXT: µg/mL
QUALIFIER_OPERATOR: <
QUANTITATIVE_RESULT: 1.1
//
MOLECULE: CC(=O)Nc1ccc(/C=N/NC(=O)c2nc(-c3ccc(O)cc3)no2)cc1
MEASURED_PROPERTY: MNTC
UNITS_TEXT: µg/mL
QUALIFIER_OPERATOR: =
QUANTITATIVE_RESULT: 33
//
MOLECULE: CN(C)c1ccc(C(=C2C=CC(=[N+](C)C)C=C2)c2ccc(N(C)C)cc2)cc1 [GENTIAN VIOLET]
MEASURED_PROPERTY: MNTC
UNITS_TEXT: µg/mL
QUALIFIER_OPERATOR: <
QUANTITATIVE_RESULT: 1
//
MOLECULE: CC(=O)Nc1ccc(/C=N/NC(=O)c2nc(-c3ccc(Br)cc3)no2)cc1
MEASURED_PROPERTY: MNTC
UNITS_TEXT: µg/mL
QUALIFIER_OPERATOR: =
QUANTITATIVE_RESULT: 33
//
MOLECULE: O=C(N/N=C/c1ccc(O)cc1)c1nc(-c2ccc(O)cc2)no1
MEASURED_PROPERTY: MNTC
UNITS_TEXT: µg/mL
QUALIFIER_OPERATOR: =
QUANTITATIVE_RESULT: 100
//
MOLECULE: COc1ccc(-c2noc(C(=O)N/N=C/c3ccc(NC(C)=O)cc3)n2)cc1
MEASURED_PROPERTY: MNTC
UNITS_TEXT: µg/mL
QUALIFIER_OPERATOR: =
QUANTITATIVE_RESULT: 100
//
MOLECULE: O=C(Cn1ccnc1[N+](=O)[O-])NCc1ccccc1 [BENZNIDAZOLE]
MEASURED_PROPERTY: MNTC
UNITS_TEXT: µg/mL
QUALIFIER_OPERATOR: =
QUANTITATIVE_RESULT: 100
//
MOLECULE: O=C(N/N=C/c1ccc(O)cc1)c1nc(-c2ccc(F)cc2)no1
MEASURED_PROPERTY: MNTC
UNITS_TEXT: µg/mL
QUALIFIER_OPERATOR: <
QUANTITATIVE_RESULT: 1.1
//
MOLECULE: CC(=O)Nc1ccc(/C=N/NC(=O)c2nc(-c3ccc(Cl)cc3)no2)cc1
MEASURED_PROPERTY: MNTC
UNITS_TEXT: µg/mL
QUALIFIER_OPERATOR: =
QUANTITATIVE_RESULT: 100
//
MOLECULE: Cc1ccc(-c2noc(C(=O)N/N=C/c3ccc(O)cc3)n2)cc1
MEASURED_PROPERTY: MNTC
UNITS_TEXT: µg/mL
QUALIFIER_OPERATOR: <
QUANTITATIVE_RESULT: 1.1
//
MOLECULE: O=C(N/N=C/c1ccc(O)cc1)c1nc(-c2ccc(Cl)cc2)no1
MEASURED_PROPERTY: MNTC
UNITS_TEXT: µg/mL
QUALIFIER_OPERATOR: <
QUANTITATIVE_RESULT: 1.1
//
MOLECULE: CC(=O)Nc1ccc(/C=N/NC(=O)c2nc(-c3ccc([N+](=O)[O-])cc3)no2)cc1
MEASURED_PROPERTY: MNTC
UNITS_TEXT: µg/mL
QUALIFIER_OPERATOR: =
QUANTITATIVE_RESULT: 33
//
MOLECULE: O=C(N/N=C/c1ccc(O)cc1)c1nc(-c2ccccc2)no1
MEASURED_PROPERTY: MNTC
UNITS_TEXT: µg/mL
QUALIFIER_OPERATOR: =
QUANTITATIVE_RESULT: 3.3
//
MOLECULE: CC(=O)Nc1ccc(/C=N/NC(=O)c2nc(-c3ccc(F)cc3)no2)cc1
MEASURED_PROPERTY: MNTC
UNITS_TEXT: µg/mL
QUALIFIER_OPERATOR: =
QUANTITATIVE_RESULT: 33

---

test system: Trypanosoma cruzi; assay: Antitrypanosomal activity against Trypanosoma cruzi trypomastigote Y strain after 24 hrs by trypan blue exclusion assay; conditions: read-out: IC50
pIC50: −log10 of the molar value.

SAMPLE_SMILES: CN(C)c1ccc(C(=C2C=CC(=[N+](C)C)C=C2)c2ccc(N(C)C)cc2)cc1
pIC50: 5.68
--
SAMPLE_SMILES: O=C(N/N=C/c1ccc(O)cc1)c1nc(-c2ccc([N+](=O)[O-])cc2)no1
pIC50: 4.67
--
SAMPLE_SMILES: O=C(N/N=C/c1ccc(O)cc1)c1nc(-c2ccccc2)no1
pIC50: 4.45
--
SAMPLE_SMILES: O=C(N/N=C/c1ccc(O)cc1)c1nc(-c2ccc(F)cc2)no1
pIC50: 4.78
--
SAMPLE_SMILES: O=C(N/N=C/c1ccc(O)cc1)c1nc(-c2ccc(Cl)cc2)no1
pIC50: 4.67
--
SAMPLE_SMILES: Cc1ccc(-c2noc(C(=O)N/N=C/c3ccc(O)cc3)n2)cc1
pIC50: 4.75
--
SAMPLE_SMILES: O=C(N/N=C/c1ccc(O)cc1)c1nc(-c2ccc(O)cc2)no1
pIC50: 4.00
--
SAMPLE_SMILES: CC(=O)Nc1ccc(/C=N/NC(=O)c2nc(-c3ccccc3)no2)cc1
pIC50: 5.44
--
SAMPLE_SMILES: COc1ccc(-c2noc(C(=O)N/N=C/c3ccc(O)cc3)n2)cc1
pIC50: 4.49
--
SAMPLE_SMILES: O=C(N/N=C/c1ccc(O)cc1)c1nc(-c2ccc(Br)cc2)no1
pIC50: 4.69
--
SAMPLE_SMILES: CC(=O)Nc1ccc(/C=N/NC(=O)c2nc(-c3ccc(C)cc3)no2)cc1
pIC50: 5.41

Origin of the recorded values: ChEMBL document CHEMBL1152555
